Every entry's value here was drawn from patent US20260151494A1.

Target: T1, apical domain of cynomolgus CD71 (cynomolgus, UniProt A0A2K5X958 189-383)
T1 construct: domain: apical domain; also called Cyno apical domain
T1 sequence (A0A2K5X958 entry or part of it): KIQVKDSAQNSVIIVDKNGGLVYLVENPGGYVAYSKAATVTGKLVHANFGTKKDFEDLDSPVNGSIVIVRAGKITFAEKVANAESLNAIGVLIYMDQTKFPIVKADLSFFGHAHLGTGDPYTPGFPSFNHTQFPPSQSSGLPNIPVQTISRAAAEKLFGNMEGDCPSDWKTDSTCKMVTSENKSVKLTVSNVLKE
Experiment: primary ELISA, signal ratio to HSA
Label fulfilled when Cyno apical domain:HSA is strictly below 200; at or above that, label not fulfilled.

Record excerpt, results attached:
[
  {
    "binder": "CD71-binding FN3 domain of SEQ ID NO: 155 (designed binder) MSLPAPENLVVSRVTEDSARLSWTAPDAAFDSFEIGYFENLYLGEAIVLTVPGSERSYDLTGLKPGTEYWVQIGGVKGGVWSRPLSAIFTT",
    "classification": "not fulfilled"
  },
  {
    "binder": "CD71-binding FN3 domain of SEQ ID NO: 169 (designed binder) MSLPAPKNLVVSRVTEDSARLSWTAPDAAFDSFEIGYFENLYLGEAIVLTVPGSERSYDLTGLKPGTEYWVQIGGVKGGNWSAPLSATFTT",
    "classification": "not fulfilled"
  },
  {
    "binder": "CD71-binding FN3 domain of SEQ ID NO: 150 (designed binder) MSLPAPKNLVVSRVTEDSARLSWTAPDAAFDSFDIGYFENSYAGEAIVLTVPGSERSYDLTGLKPGTEYYVSIAGVKGGRFSPPLSAIFTT",
    "classification": "fulfilled"
  },
  {
    "binder": "CD71-binding FN3 domain of SEQ ID NO: 214 (designed binder) MSLPAPKNLVVSRVTEDSARLSWTAPDAAFDSFEIDYGEYSQAGEAIGLLVPGSERSYDLTGLKPGTEYWVQIGGVKGGNWSAPLSAIFTT",
    "classification": "fulfilled"
  },
  {
    "binder": "CD71-binding FN3 domain of SEQ ID NO: 212 (designed binder) MSLPAPKNLVVSRVTEDSARLSWTAPDAAFDSFEIGYFENLYLGEAIVLTVPGSERYYDLTGLKPGTEYWVQIGGVKGGNWSAPLSAIFTT",
    "classification": "fulfilled"
  }
]

Ask: In plain terms, does CD71-binding FN3 domain of SEQ ID NO: 197 (designed binder) MSLPAPKNLVVSRVTEDSARLSWTAPDAAFDSFFIGYLEPQPPGEAISLLVPGSERSYDLTGLKPGTEYNVTIQGVKGGFPSEPLHAIFTT come in under 200 for Cyno apical domain:HSA?
Reply: fulfilled

Ask: Can you handle CD71-binding FN3 domain of SEQ ID NO: 179 (designed binder) MSLPAPKNLVVSRVTEDSARLSWTAPDAAFDSFFIGYLEPQPPGEAITLLVPGSERSYDLTGLKPGTEYNVTIQGVKGGFPSHPLVATTTT next?
Reply: fulfilled
